Just for reference, patent US9290691B2 is where these values come from.

Protocol Details: Solubility Evaluation 1: anthracene compounds in various solvents, visual check
Assay type: physicochemical
Set-up: key: A: it was confirmed that the compounds were dissolved in the dropped solvents; C: the compounds were not completely dissolved and undissolved residues remained
Condition Context: 30 mg compound, 1 g solvent, visual check

Compound	Solubility in Xylene
c1ccc(-c2ccc3cc(-c4cccc(-c5c6ccccc6c(-c6ccc7ccccc7c6)c6ccccc56)c4)ccc3c2)cc1 [Compound 8]	C
c1ccc2cc(-c3c4ccccc4c(-c4ccc(-c5cccc6ccccc56)cc4)c4ccccc34)ccc2c1 [Compound 1]	A
c1ccc(-c2c3ccccc3c(-c3cccc(-c4cccc(-c5c6ccccc6c(-c6ccccc6)c6ccccc56)c4)c3)c3ccccc23)cc1 [Compound 12]	C
c1ccc(-c2ccc(-c3c4ccccc4c(-c4ccc(-c5ccccc5)cc4)c4ccccc34)cc2)cc1 [Compound 13]	C
